EXPERIMENTAL_SYSTEM: PmSiaT (Proteus mirabilis, UniProt B4EZY7)
Construct: made in house
Sequence (B4EZY7 whole entry): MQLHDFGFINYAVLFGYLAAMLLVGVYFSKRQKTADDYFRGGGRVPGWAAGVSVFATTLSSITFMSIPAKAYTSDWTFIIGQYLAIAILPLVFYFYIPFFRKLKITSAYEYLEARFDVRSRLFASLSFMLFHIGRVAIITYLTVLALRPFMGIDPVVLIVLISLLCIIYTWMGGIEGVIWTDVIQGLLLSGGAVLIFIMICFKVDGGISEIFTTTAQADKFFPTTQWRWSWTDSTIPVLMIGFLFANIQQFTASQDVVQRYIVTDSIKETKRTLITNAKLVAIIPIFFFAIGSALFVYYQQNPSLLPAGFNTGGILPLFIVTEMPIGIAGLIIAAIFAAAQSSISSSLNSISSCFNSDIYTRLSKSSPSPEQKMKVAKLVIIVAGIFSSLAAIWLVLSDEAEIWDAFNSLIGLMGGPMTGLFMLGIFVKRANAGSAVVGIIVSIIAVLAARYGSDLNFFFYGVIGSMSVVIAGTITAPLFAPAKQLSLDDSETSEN
TEST_DETAILS: nanoDSF thermal shift assay, PmSiaT
Format: binding
CONDITION: PmSiaT, experiment 3, first capillary, 1.25 mM
REPORTED_METRIC: Tm 3 (°C)

[[record]]
molecule = "CC(=O)NC1C(O)CC(O)(C(=O)O)OC1C(O)C(O)CCl (centres unmarked)"
reported_metric = "Tm 3"
measured_result = 47.9

[[record]]
molecule = "O=C(CCl)NC1C(O)CC(O)(C(=O)O)OC1C(O)C(O)CO (centres unmarked)"
reported_metric = "Tm 3"
measured_result = 49.5

[[record]]
molecule = "CSCC(O)C(O)C1OC(O)(C(=O)O)CC(O)C1NC(C)=O (centres unmarked)"
reported_metric = "Tm 3"
measured_result = 46.2

[[record]]
molecule = "CC(C)C(=O)NC1C(O)CC(O)(C(=O)O)OC1C(O)C(O)CO (centres unmarked)"
reported_metric = "Tm 3"
measured_result = 47.0

[[record]]
molecule = "CC(=O)NC1C(O)CC(O)(C(=O)O)OC1C(O)C(O)CN=[N+]=[N-] (centres unmarked)"
reported_metric = "Tm 3"
measured_result = 45.9

[[record]]
molecule = "CC(=O)N[C@H]1[C@H]([C@H](O)[C@H](O)CO)OC(O)(C(=O)O)C[C@@H]1O (some centres unmarked) [Neu5Ac, 5-N-acetyl neuraminic acid, reference compound]"
reported_metric = "Tm 3"
measured_result = 49.3

[[record]]
molecule = "CC(=O)NC1C(OCc2ccc(C#N)cc2)CC(O)(C(=O)O)OC1C(O)C(O)CO (centres unmarked)"
reported_metric = "Tm 3"
measured_result = 54.2

[[record]]
molecule = "CC(=O)NC1C(O)CC(O)(C(=O)O)OC1C(O)C(O)CBr (centres unmarked)"
reported_metric = "Tm 3"
measured_result = 47.4

[[record]]
molecule = "O=C(CF)NC1C(O)CC(O)(C(=O)O)OC1C(O)C(O)CO (centres unmarked)"
reported_metric = "Tm 3"
measured_result = 47.4

[[record]]
molecule = "CC(=O)NC1C(OCc2ccc(F)cc2)CC(O)(C(=O)O)OC1C(O)C(O)CO (centres unmarked)"
reported_metric = "Tm 3"
measured_result = 53.0

[[record]]
molecule = "CCC(=O)NC1C(O)CC(O)(C(=O)O)OC1C(O)C(O)CO (centres unmarked)"
reported_metric = "Tm 3"
measured_result = 46.7

[[record]]
molecule = "CC(=O)NC1C(OCc2cc(F)cc(F)c2)CC(O)(C(=O)O)OC1C(O)C(O)CO (centres unmarked)"
reported_metric = "Tm 3"
measured_result = 56.0

[[record]]
molecule = "CCSCC(O)C(O)C1OC(O)(C(=O)O)CC(O)C1NC(C)=O (centres unmarked)"
reported_metric = "Tm 3"
measured_result = 46.2

[[record]]
molecule = "CC(=O)NC1C(OCc2ccccc2)CC(O)(C(=O)O)OC1C(O)C(O)CO (centres unmarked)"
reported_metric = "Tm 3"
measured_result = 54.0

[[record]]
molecule = "O=C(NC1C(O)CC(O)(C(=O)O)OC1C(O)C(O)CO)c1ccccc1 (centres unmarked)"
reported_metric = "Tm 3"
measured_result = 45.5

[[record]]
molecule = "CC(=O)NC1C(OCc2ccc(Br)cc2)CC(O)(C(=O)O)OC1C(O)C(O)CO (centres unmarked)"
reported_metric = "Tm 3"
measured_result = 56.0

[[record]]
molecule = "CC(C)(C)C(=O)NC1C(O)CC(O)(C(=O)O)OC1C(O)C(O)CO (centres unmarked)"
reported_metric = "Tm 3"
measured_result = 46.7


This collection of values is drawn from paper PMC9295122.
